Data provenance is ChEMBL document CHEMBL2380312.

Target: Histone deacetylase 8 (Homo sapiens)
Sequence (Q9BY41 whole entry): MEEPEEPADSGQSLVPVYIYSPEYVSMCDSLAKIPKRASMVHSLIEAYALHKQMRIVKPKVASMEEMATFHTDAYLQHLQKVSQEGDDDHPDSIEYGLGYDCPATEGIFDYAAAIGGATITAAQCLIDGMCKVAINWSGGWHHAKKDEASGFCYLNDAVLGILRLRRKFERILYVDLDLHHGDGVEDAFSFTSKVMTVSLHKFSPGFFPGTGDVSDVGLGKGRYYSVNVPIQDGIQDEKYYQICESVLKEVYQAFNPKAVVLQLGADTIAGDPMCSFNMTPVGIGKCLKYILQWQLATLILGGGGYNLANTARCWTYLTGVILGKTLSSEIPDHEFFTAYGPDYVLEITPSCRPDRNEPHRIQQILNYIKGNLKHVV
Reported property: IC50 (nM)
Answers are plain numbers, in nM.

O=C(/C=C/c1cccc(C(=O)NO)c1)Nc1ccccc1    37

Please find the next molecule below.
Form field: IC50 recorded for Cc1cccc(C(=O)NO)c1 with Histone deacetylase 8 (Homo sapiens) (enter value)
3300

====

A short record of pIC50 observed with Histone deacetylase 1 (Homo sapiens, UniProt Q13547) follows.
Sequence (Q13547 whole entry): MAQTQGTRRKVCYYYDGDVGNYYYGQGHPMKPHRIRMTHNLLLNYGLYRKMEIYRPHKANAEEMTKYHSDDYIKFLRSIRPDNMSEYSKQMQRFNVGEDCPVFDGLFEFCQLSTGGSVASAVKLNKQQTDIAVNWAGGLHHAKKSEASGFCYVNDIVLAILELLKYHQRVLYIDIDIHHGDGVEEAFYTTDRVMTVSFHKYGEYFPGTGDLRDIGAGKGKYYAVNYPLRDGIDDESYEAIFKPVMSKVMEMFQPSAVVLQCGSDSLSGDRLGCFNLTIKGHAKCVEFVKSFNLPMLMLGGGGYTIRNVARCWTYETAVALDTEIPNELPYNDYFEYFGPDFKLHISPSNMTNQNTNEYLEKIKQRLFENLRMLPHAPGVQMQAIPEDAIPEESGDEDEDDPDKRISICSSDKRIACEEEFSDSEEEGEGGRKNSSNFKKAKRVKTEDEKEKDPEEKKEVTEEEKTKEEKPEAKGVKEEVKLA
Answers are plain numbers, as −log10 of the molar value.

O=C(/C=C/c1cccc(C(=O)NO)c1)Nc1ccccc1    5.21

With those in mind, consider the next compound.
Given the compound O=C(NO)c1cccc(C(=O)NCCc2ccccc2)c1 , what is its reported pIC50?
4.92

====

Provide the recorded pIC50 for the entries that follow.
biological target: Histone deacetylase 4 (Homo sapiens)
Sequence (P56524 whole entry): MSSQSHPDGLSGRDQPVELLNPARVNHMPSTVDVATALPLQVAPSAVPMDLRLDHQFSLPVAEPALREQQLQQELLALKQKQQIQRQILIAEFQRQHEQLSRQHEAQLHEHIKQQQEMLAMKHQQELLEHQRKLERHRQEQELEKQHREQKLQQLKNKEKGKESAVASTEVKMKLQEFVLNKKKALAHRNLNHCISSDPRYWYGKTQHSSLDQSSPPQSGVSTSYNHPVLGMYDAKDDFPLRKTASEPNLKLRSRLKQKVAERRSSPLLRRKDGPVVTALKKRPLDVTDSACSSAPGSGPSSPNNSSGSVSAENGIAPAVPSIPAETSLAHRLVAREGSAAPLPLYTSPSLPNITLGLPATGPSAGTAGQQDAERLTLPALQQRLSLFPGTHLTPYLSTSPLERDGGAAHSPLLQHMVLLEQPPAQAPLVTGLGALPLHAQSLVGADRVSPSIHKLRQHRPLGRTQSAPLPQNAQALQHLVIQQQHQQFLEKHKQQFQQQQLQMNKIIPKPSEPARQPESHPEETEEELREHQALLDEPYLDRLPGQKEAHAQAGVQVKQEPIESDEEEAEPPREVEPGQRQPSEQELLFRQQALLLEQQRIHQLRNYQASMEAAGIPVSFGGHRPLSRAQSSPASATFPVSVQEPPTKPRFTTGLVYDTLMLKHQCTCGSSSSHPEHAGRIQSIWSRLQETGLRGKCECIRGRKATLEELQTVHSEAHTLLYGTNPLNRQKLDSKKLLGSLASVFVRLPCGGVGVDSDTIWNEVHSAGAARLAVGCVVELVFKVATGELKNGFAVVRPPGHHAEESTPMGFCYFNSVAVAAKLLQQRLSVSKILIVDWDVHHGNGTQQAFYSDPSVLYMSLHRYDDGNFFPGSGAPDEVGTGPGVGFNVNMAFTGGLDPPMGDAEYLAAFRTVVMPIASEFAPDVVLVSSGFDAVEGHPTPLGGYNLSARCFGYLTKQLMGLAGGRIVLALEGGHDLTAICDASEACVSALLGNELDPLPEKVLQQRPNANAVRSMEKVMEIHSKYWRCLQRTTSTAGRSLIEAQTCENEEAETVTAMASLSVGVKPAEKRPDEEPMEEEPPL
pIC50: −log10 of the molar value.

Cc1cccc(C(=O)NO)c1    < 4.48
O=C(/C=C/c1cccc(C(=O)NO)c1)Nc1ccccc1    4.85

Field: next molecule
# get_value(readout='pIC50', item= CNC(=O)c1cccc(C(=O)NO)c1 )
< 4.48

====

target: Protein deacetylase HDAC6 (Homo sapiens, UniProt Q9UBN7); assay: Inhibition of HDAC6 (unknown origin) after 60 mins by fluorescence assay
Sequence (Q9UBN7 whole entry): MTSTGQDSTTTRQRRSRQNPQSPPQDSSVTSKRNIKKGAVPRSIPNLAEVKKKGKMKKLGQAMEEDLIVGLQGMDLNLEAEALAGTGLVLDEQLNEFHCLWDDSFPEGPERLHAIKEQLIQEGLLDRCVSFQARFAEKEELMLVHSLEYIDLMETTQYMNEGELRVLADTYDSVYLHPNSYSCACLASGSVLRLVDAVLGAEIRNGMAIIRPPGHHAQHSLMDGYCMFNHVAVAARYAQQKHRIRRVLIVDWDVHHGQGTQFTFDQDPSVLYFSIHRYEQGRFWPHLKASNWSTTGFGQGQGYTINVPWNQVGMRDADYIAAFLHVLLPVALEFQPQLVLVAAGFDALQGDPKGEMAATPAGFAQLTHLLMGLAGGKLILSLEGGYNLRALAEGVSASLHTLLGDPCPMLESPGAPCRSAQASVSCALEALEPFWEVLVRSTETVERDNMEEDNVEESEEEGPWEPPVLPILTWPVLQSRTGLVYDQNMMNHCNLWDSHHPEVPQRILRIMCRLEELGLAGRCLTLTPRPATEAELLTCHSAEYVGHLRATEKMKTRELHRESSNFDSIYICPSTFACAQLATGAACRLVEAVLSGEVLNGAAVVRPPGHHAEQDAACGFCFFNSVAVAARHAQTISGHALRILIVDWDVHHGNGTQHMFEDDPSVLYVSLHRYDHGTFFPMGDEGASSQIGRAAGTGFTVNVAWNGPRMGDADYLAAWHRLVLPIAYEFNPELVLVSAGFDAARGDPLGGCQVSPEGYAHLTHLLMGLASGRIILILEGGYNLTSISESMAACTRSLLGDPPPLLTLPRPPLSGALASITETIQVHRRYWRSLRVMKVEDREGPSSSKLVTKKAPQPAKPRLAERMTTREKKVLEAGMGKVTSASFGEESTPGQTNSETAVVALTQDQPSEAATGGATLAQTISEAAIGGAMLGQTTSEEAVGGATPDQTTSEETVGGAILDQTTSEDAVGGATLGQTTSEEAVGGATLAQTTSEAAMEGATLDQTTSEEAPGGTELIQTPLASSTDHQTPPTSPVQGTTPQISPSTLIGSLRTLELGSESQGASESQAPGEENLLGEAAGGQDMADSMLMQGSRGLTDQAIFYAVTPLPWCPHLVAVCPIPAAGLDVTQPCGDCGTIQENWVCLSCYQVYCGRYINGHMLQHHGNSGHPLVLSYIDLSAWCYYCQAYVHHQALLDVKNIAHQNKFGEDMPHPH
Reported property: IC50 (nM)
One number for each entry, in nM.

Cc1cccc(C(=O)NO)c1    650

Let us examine a further case.
What measured IC50 goes with O=C(NO)c1cccc(CNc2ccccc2)c1 ?
1300

====

target: Histone deacetylase 2 (Homo sapiens)
Sequence (Q92769 whole entry): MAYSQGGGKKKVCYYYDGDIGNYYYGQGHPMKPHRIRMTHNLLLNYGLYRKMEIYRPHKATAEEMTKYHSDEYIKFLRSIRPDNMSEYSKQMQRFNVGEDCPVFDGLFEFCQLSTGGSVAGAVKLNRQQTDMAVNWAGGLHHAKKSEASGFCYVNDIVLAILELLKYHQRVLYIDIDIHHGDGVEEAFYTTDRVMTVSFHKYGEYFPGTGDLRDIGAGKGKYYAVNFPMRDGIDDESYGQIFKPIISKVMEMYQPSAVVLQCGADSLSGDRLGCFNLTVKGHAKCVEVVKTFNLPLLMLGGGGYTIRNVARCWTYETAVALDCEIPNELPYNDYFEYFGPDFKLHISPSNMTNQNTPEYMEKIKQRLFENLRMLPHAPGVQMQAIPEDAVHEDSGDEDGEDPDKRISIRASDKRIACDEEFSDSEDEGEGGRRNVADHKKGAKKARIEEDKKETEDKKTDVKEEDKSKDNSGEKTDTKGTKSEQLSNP
Reported property: pIC50
Numbers only, as −log10 of the molar value.

O=C(NO)c1cccc(C(=O)NCCc2ccccc2)c1    5.05

Query: pIC50; subject: O=C(NO)c1cccc(C(=O)NCc2ccccc2)c1
4.96
